All figures here come from ChEMBL document CHEMBL4373644.

# Target Or Test System: UniProt P35869
# Protocol Notes: Agonist activity at AhR in human HuH7 cells assessed as increase in CYP1B1 expression at 10 uM after 24 hrs by microarray analysis relative to control
# Type: ADME, cell-based
# Measurement Parameters: read-out: FC
Quantity Name: fold induction at 24 h, 10 µM

Entry O=C1Nc2ccccc2/C1=C/c1nc2ccccc2c(=O)[nH]1 — recorded fold induction at 24 h, 10 µM = 8.6

----------
# Target Or Test System: UniProtKB P35869
# Protocol Notes: Agonist activity at AhR in human HuH7 cells at 10 uM after 24 hrs by renilla luciferase reporter gene assay relative to control
# Format: cell-based
# Measurement Parameters: read-out: FC
Quantity Name: fold induction at 24 h, 10 µM

# fold induction at 24 h, 10 µM measured on UniProtKB P35869 for item O=C1Nc2ccccc2/C1=C/c1nc2ccccc2c(=O)[nH]1 = ≤ 17
